- Test system: H146 cells
- experiment: H146 cell viability, MTT assay
- Assay type: cell-based
- condition_label: Homo sapiens, NCI-H146, 48 h, 48 h exposure

- structure_notation: "COCCCC1(Cn2ncc(-c3sc(Nc4nnc(Nc5nc6ccccc6s5)c(C)c4C)nc3C(=O)O)c2C)CCCCCCC1"
  IC50: "2330 nM"
- structure_notation: "Cc1c(Nc2nc(C(=O)O)cs2)nnc(Nc2nc3ccccc3s2)c1CO"
  IC50: "> 15000 nM"
- structure_notation: "CNCC#Cc1ccc(OCCCc2sc(N(CCCCC[N+](C)(C)CCCS(=O)(=O)[O-])c3cc(C)c(Nc4nc5ccccc5s4)nn3)nc2C(=O)O)c(F)c1"
  IC50: "3240 nM"
- structure_notation: "CN(c1cc(C2CC2)c(Nc2nc3ccccc3s2)nn1)c1nc(C(=O)O)cs1"
  IC50: "4190 nM"
- structure_notation: "CNCC#Cc1ccc(OCCCc2sc(N(C)c3cc(C)c(Nc4nc5ccccc5s4)nn3)nc2C(=O)O)c(F)c1"
  IC50: "4.8 nM"
- structure_notation: "Cc1cc(N(CCCCCN2CCC(N)CC2)c2nc(C(=O)O)c(CCCOc3ccc(C#CCN(C)C)cc3F)s2)nnc1Nc1nc2ccccc2s1"
  IC50: "36.3 nM"
- structure_notation: "Cc1c(Nc2nc(C(=O)O)c(CCCOc3ccccc3)s2)nnc(Nc2nc3ccccc3s2)c1C"
  IC50: "207 nM"

Provenance of the data: patent US12649733B2
